- System: Malme-3M
- ASSAY INFO: NCI tumour cell line growth inhibition, 48 h
The source made the active and inactive calls. No stated cut-off is given here; in the data, active = GI50 up to about 1.1 µM and inactive = higher.
Readings of GI50 for the listed compounds
METRIC NAME: GI50

COMPOUND	TEST SYSTEM	RESULT
CCOC(=O)/C=C/C1=C(Br)[C@@]2(C)CC[C@@H]3c4ccc(O)cc4CC[C@H]3[C@@H]2C1	Malme-3M	12 µM (inactive)
CCOP(=O)(OCC)[C@]12C[C@@H](C)C=C[C@H]1COC2=O	Malme-3M	> 100 µM (inactive)
Cc1cc2ccccc2c[n+]1CC(=O)CC([O-])(C(F)(F)F)C(F)(F)F	Malme-3M	> 100 µM (inactive)
NC(C(F)(F)F)(C(F)(F)F)P(=O)(c1ccccc1)c1ccccc1	Malme-3M	> 100 µM (inactive)
COc1cc(C(C#N)NNc2nc(C)cc(O)n2)cc(OC)c1OC (centres undefined)	Malme-3M	> 100 µM (inactive)
Cc1ccc(S(=O)(=O)N2CCN3C(=O)c4ccccc4C32c2ccc(F)cc2)cc1 (centres undefined)	Malme-3M	> 100 µM (inactive)
O=C1CCCCC1=C(I)I	Malme-3M	14.3 µM (inactive)
CC(=O)NCCc1c[nH]c2ccc(Cl)cc12	Malme-3M	> 100 µM (inactive)
CCOP(=O)(OCC)/C(C#N)=C/c1ccc[nH]1	Malme-3M	> 100 µM (inactive)
C=C[C@@]1(C)CCC2(O)C(CCC3C2(C)CCC[C@@]3(C)COC(=O)CC(=O)OC)C1 (some centres undefined)	Malme-3M	17.7 µM (inactive)
Cc1ccccc1/N=N/c1c(-c2ccccc2)nn(C(=O)CC(=O)Nc2cccc(Cl)c2)c1-c1ccccc1	Malme-3M	37.9 µM (inactive)
CCOc1ccccc1NC(=O)CC(C(=O)OC)C(=O)C(=O)OC (centres undefined)	Malme-3M	> 100 µM (inactive)
COc1cc(Nc2nc3cc(C(F)(F)F)ccc3nc2-c2ccccc2)cc(OC)c1OC	Malme-3M	> 100 µM (inactive)
CN(C)CC1CCCC/C1=N/OC(=O)c1ccc(Cl)c(Cl)c1 (centres undefined)	Malme-3M	> 100 µM (inactive)
Cc1cc(NS(=O)(=O)c2ccc(NC(=O)c3ccc4nc5ccccc5c(Nc5ccc(S(=O)(=O)N=C(N)N)cc5)c4c3)cc2)no1	Malme-3M	15.6 µM (inactive)
Cn1c(=O)c2ccc(-c3ccc(Br)cc3)nc2n(C)c1=O	Malme-3M	> 100 µM (inactive)
CCCCCCCCC(=O)CCCCCCCCC(=O)O	Malme-3M	31.3 µM (inactive)
Nc1ccc(C(=O)N/C(=C\c2cccc([N+](=O)[O-])c2)c2nc3c(O)nc(S)nc3[nH]2)cc1	Malme-3M	> 100 µM (inactive)
COC(=O)C12C3C4C5(C(=O)OC)C(C1C35C(=O)N(C(C)C)C(C)C)C42C(=O)N(C(C)C)C(C)C (centres undefined)	Malme-3M	> 50 µM (inactive)
CC1(C)SCc2nc3ccccc3n21	Malme-3M	> 100 µM (inactive)
CC(C)CC(C#CCCOC(=O)c1ccccc1)OC(=O)c1ccccc1 (centres undefined)	Malme-3M	> 10 µM (inactive)
COc1ccc(C2c3cc4c(cc3C(O)C3CCC(=O)N23)OCO4)cc1 (centres undefined)	Malme-3M	> 100 µM (inactive)
Cc1cn(C2CC(N=[N+]=[N-])C(CO[Si](C)(C)C(C)(C)C)O2)c(=O)[nH]c1=O (centres undefined)	Malme-3M	14.3 µM (inactive)
Cc1nc2c(o1)/C(=N\c1ccccc1)c1nc(C)oc1/C2=N/c1ccccc1	Malme-3M	19.4 µM (inactive)
C=Cn1c([N+](=O)[O-])cnc1/C=C/c1ccc(C(=O)OCCN2CCOCC2)cc1	Malme-3M	61 µM (inactive)
Nc1nc(-c2ccco2)cc(-c2ccc(CO)o2)n1	Malme-3M	> 100 µM (inactive)
Nc1ncnc2c1sc1nc3ccccc3n12	Malme-3M	> 71.3 µM (inactive)
COC(=O)c1csnn1	Malme-3M	> 100 µM (inactive)
CCCCCCCCCC(=O)CC(=O)c1c(O)cc(O)cc1O	Malme-3M	14.4 µM (inactive)

----------
- Tested on: T47D
- ASSAY INFO: NCI tumour cell line growth inhibition, 48 h
Calls of active or inactive are those of the source. Cut-off read from the data, not from the text of the source: active = GI50 up to about 1.1 µM and inactive = higher.
Outcomes: TRUE = active, FALSE = inactive

COMPOUND	TEST SYSTEM	ASSIGNED CATEGORY
c1nnc(NCNc2nncs2)s1	T47D	FALSE
COC(=O)/C=C\C(C#N)(C#N)/N=C/c1ccccc1	T47D	FALSE
CC(C)=C[C@H]1CCC2(OCCO2)[C@]1(C)COCc1ccccc1	T47D	FALSE
NC(C(F)(F)F)(C(F)(F)F)P(=O)(c1ccccc1)c1ccccc1	T47D	FALSE
O=C1OI(C#Cc2ccccc2)c2ccccc21	T47D	FALSE
COC(=O)/C(=N\NC(=S)NN)C(C(=O)OC)C(=O)C(=O)Nc1cccc(C(F)(F)F)c1 (stereo not given)	T47D	FALSE
CCOC(=O)CSc1nc(N)c2c(-c3ccccc3)c3c(nc2n1)CCCC3	T47D	FALSE
CCN(CC)CCNc1ccc2nnn3c4ccc([N+](=O)[O-])cc4c(=O)c1c23	T47D	FALSE
CCOC(=O)c1c(-c2ccccc2)c(OC)cn1C	T47D	FALSE
N#Cc1c(N)c2c(c(-c3ccccc3)c1-c1ccccc1)C(=O)N(N)C2=O	T47D	FALSE
Cc1cn(C2CC(N=[N+]=[N-])C(CO[Si](C)(C)C(C)(C)C)O2)c(=O)[nH]c1=O (stereo not given)	T47D	FALSE
CC(=O)OC(C)(C)/N=N/c1ccc(Br)cc1	T47D	TRUE
O=C1N[C@@H]2c3c(Br)sc(Br)c3C(=O)[C@@H]2O1	T47D	FALSE
COc1cc2cc3c4cc(OC)c(OC)cc4cc[n+]3c(C)c2cc1OC [CORALYNE]	T47D	FALSE
O=C(COc1ccc(OCC(=O)N2C(=O)CN(c3ccccc3)C2=S)cc1)N1C(=O)CN(c2ccccc2)C1=S	T47D	FALSE
O=C1NC(=S)NC(=O)C1C(c1ccc(Cl)cc1)C1C(=O)NC(=S)NC1=O.c1ccncc1	T47D	FALSE
CC(C)CC(C#CCCOC(=O)c1ccccc1)OC(=O)c1ccccc1 (stereo not given)	T47D	FALSE
Cc1cc(C)n(CN(Cn2nc(C)cc2C)C2CCCCC2)n1	T47D	FALSE
N/C(=N\OC(=O)NC(Cl)=C(Cl)Cl)c1cc(C(F)(F)F)cc(C(F)(F)F)c1	T47D	FALSE
O=C1c2c(Br)sc(Br)c2C(NC(=O)C(F)(F)F)C1O (stereo not given)	T47D	FALSE
O=C(Nc1ccc(C(F)(F)F)cc1[N+](=O)[O-])c1cccnc1	T47D	FALSE
COc1ccc(/C=c2\s/c(=C3/SC(=S)N(c4ccccc4)C3=O)n(-c3ccccc3)c2=O)cc1	T47D	FALSE
COc1ccc(-c2cc(=O)c3ccc(O)cc3o2)cc1OC	T47D	FALSE
Cc1nn(CN2CCN(C)CC2)c(=S)n1/N=C/c1ccc(-c2ccc(Cl)cc2Cl)o1	T47D	FALSE
O=C(Nc1ccn(C2CC(I)C(COC(c3ccccc3)(c3ccccc3)c3ccccc3)O2)c(=O)n1)c1ccccc1 (stereo not given)	T47D	FALSE
O=[N+]([O-])C1=Cc2c(O)ccc(O)c2C2c3ccccc3NC12 (stereo not given)	T47D	FALSE
O=C(/C=C/c1ccccc1)Nc1ccccc1SCCCCl	T47D	FALSE
c1ccc2c(c1)CCc1[nH]c3c(c1-2)-c1ccccc1CC3	T47D	FALSE
COC(=O)c1cc(C)n2c1CS[C@@H]2c1ccccc1	T47D	FALSE
N=C(N)c1ccc(/C=C/c2ccc(C(=N)N)cc2)cc1	T47D	FALSE

----------
- Test system: 786-0
- ASSAY INFO: NCI tumour cell line growth inhibition, 48 h
The source made the active and inactive calls. Cut-off read from the data, not from the text of the source: active = GI50 up to about 1.1 µM and inactive = higher.
Classes used: y = active, n = inactive

COMPOUND	ASSIGNED CATEGORY
COC(=O)C1=C(C(=O)OC)SC(=C2c3ccsc3-c3sccc32)S1	n
COc1cc(Nc2nc3cc(C(F)(F)F)ccc3nc2-c2ccccc2)cc(OC)c1OC	n
OCCCCCNc1ccnc2cc(Cl)ccc12	n
CSc1nc(=O)c(C#N)c(-c2ccccc2)n1C1OC(COC(C)=O)C(OC(C)=O)C(OC(C)=O)C1OC(C)=O (stereo not drawn)	n
NC(=O)CCSC(CC(=O)c1ccc(Cl)cc1)c1ccc(Cl)cc1 (stereo not drawn)	n
CC1(C)[C@H]2CC[C@]1(C)[C@H](OC(=O)NNC(=O)O[C@@H]1C[C@@H]3CC[C@@]1(C)C3(C)C)C2	n
O=c1[nH]nc(Cc2ccc(Cl)cc2)n1Nc1ccccc1	n
N#CC(C(=O)CCC(=O)Nc1ccc(Cl)cc1)c1ccccc1Cl (stereo not drawn)	n
CC1=C2C(=CO[C@H](C)[C@H]2C)C(O)=C(C(=O)O)C1=O	n
COc1cc2ccc(=O)oc2cc1O	n
CCOC(=O)C1Cc2[nH]c3ccccc3c2C(C)C1C (stereo not drawn)	n
CC(Cc1ccccc1)N(C)Cc1nc(C2CCC([N+](=O)[O-])O2)no1 (stereo not drawn)	n
COc1cc2oc(-c3ccc4c(c3)OCO4)c(OC)c(=O)c2c(OC)c1OC	n
COc1cc2c(/C=C3/C(=O)N(C)c4ccccc43)c(Cl)[nH]c2cc1C	y
O=C(O)CN1C(=O)CN=C(c2ccccn2)c2cc(Cl)ccc21	n
Cc1cc(O)c2c(c1O)C(=O)c1cccc(O)c1C2=O	n
CC(=O)O[C@H]1CCC2[C@@H]3CC[C@]4(C)CC(=O)C=C[C@]4(C)C3CC[C@@]21C (stereo partly drawn)	n
Cc1nn(CN2CCN(C)CC2)c(=S)n1/N=C/c1ccc(-c2ccc(Cl)cc2Cl)o1	n
C#CCNC(Cc1c[nH]cn1)C(=O)O (stereo not drawn)	n
CC(C)(C)[Si](C)(C)OCCOCn1cc(F)c(=O)[nH]c1=O	n
CNc1ccc(N)cc1C(=O)N1CCC[C@H]1CO	n
Cn1ccc2c(c1=O)C(=O)OC2(C)C	n
CSC1=NC=CCN1C	n
Cc1ccc(S(N)(=O)=O)cc1 [P-TOLUENESULFONAMIDE]	n
O=C1OC(CC(=O)c2ccc(Cl)cc2Cl)C(Cl)=C1Cl (stereo not drawn)	n
O=C(Nc1ccn(C2CC(I)C(COC(c3ccccc3)(c3ccccc3)c3ccccc3)O2)c(=O)n1)c1ccccc1 (stereo not drawn)	n
CCOC(OC(C)=O)[C@@H]1C=C[C@H](C)N(c2ccc([N+](=O)[O-])cc2)O1 (stereo partly drawn)	n
Cc1cc(C)c(/C=N/NS(=O)(=O)c2ccccc2)c(C)c1	n
CC(C)CC(NC(=O)OC(C)(C)C)C(=O)Nc1ccc(Nc2nc(F)nc(-c3c4ccccc4c4n3CCS4)n2)cc1 (stereo not drawn)	n
CC(=O)OCC12CC(CC1OC(C)=O)c1ccccc12 (stereo not drawn)	n
CN(C)CC1CN/C(=N\C(=O)Nc2ccccc2)O1 (stereo not drawn)	n
Nc1c(C(=O)Nc2ccc([As](=O)(O)O)cc2)cnc2nnnn12	n
CCC(C)C1=C(O)[N+]2([O-])Oc3ccc(-c4c(O)c(O)c(-c5ccc(O)cc5)c(OC(C)=O)c4OC(C)=O)cc3OC2(C(C)CC)C(=O)N1O (stereo not drawn)	n
CC(C)(C)OC/C=C1\C(=O)O[C@H]2C[C@@H](O[Si](C)(C)C(C)(C)C)C[C@@H]12	n
CCOC(=O)/C=C/C1=C(Br)[C@@]2(C)CC[C@@H]3c4ccc(O)cc4CC[C@H]3[C@@H]2C1	n
NCCN1C(=O)C2C3c4ccccc4C(c4ccccc43)C2C1=O (stereo not drawn)	n
N/C(=N\OC(=O)NC(Cl)=C(Cl)Cl)c1cc(C(F)(F)F)cc(C(F)(F)F)c1	n
CN(C)CN(C)c1nc(N(C)C)nc(N(C)C)n1	n

These entries and their values trace back to ChEMBL document CHEMBL1201862.
